The values you see were collected from ChEMBL document CHEMBL1133064.

target or system: Serotonin 2 receptors; 5-HT2a & 5-HT2c (Homo sapiens) (UniProt P28223+P28335)
Sequence (P28223 whole entry, looked up, one chain of several): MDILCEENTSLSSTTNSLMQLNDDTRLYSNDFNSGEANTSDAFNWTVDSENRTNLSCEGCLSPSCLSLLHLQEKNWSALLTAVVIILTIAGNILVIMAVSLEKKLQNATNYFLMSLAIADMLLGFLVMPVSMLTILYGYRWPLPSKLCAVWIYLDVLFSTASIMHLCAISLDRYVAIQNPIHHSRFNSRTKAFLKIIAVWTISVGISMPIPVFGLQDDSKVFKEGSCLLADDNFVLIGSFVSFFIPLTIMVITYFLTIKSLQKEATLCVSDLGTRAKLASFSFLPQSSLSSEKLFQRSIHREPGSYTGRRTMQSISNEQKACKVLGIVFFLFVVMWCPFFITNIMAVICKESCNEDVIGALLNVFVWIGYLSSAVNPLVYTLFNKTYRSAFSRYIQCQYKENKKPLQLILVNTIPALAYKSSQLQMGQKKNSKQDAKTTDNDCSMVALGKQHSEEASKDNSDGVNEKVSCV
protocol details: Selectivity expressed as ratio of serotonin 5-HT2C receptor over serotonin 5-HT2A receptor
Type: protein assay
# Selectivity annotations

{"structure smiles": "CCc1ncccc1Oc1ccc(NC(=O)N2CCc3cc(C)c(Cl)cc32)cn1", "censoring operator": "=", "Selectivity": 100}
{"structure smiles": "Cc1ncccc1Oc1ccc(NC(=O)N2CCc3cc(F)ccc32)cn1", "censoring operator": ">", "Selectivity": 250}
{"structure smiles": "Cc1ncccc1Oc1ccc(NC(=O)N2CCc3c2cccc3C(F)(F)F)cn1", "censoring operator": ">", "Selectivity": 50}
{"structure smiles": "Cc1ncccc1Oc1ccc(NC(=O)N2CCc3cc(F)c(Cl)cc32)cn1", "censoring operator": "=", "Selectivity": 80}
{"structure smiles": "Cc1ncccc1Oc1ccc(NC(=O)N2CCc3ccc(Cl)cc32)cn1", "censoring operator": "=", "Selectivity": 80}
{"structure smiles": "Cc1ncccc1Oc1ccc(NC(=O)N2CCc3c2ccc(Cl)c3Cl)cn1", "censoring operator": "=", "Selectivity": 1000}
{"structure smiles": "CCc1cc2c(cc1C(F)(F)F)N(C(=O)Nc1ccc(Oc3cccnc3C)nc1)CC2", "censoring operator": "=", "Selectivity": 200}
{"structure smiles": "Cc1ncccc1Oc1ccc(NC(=O)N2CCc3cc(I)ccc32)cn1", "censoring operator": "=", "Selectivity": 500}
{"structure smiles": "Cc1cc2c(cc1C(F)(F)F)N(C(=O)Nc1ccc(Oc3cccnc3C)nc1)CC2", "censoring operator": "=", "Selectivity": 160}
{"structure smiles": "Cc1cc2c(cc1Cl)N(C(=O)Nc1cnc(Oc3cccnc3C)c(C)c1)CC2", "censoring operator": "=", "Selectivity": 80}

====

Target protein (sequence): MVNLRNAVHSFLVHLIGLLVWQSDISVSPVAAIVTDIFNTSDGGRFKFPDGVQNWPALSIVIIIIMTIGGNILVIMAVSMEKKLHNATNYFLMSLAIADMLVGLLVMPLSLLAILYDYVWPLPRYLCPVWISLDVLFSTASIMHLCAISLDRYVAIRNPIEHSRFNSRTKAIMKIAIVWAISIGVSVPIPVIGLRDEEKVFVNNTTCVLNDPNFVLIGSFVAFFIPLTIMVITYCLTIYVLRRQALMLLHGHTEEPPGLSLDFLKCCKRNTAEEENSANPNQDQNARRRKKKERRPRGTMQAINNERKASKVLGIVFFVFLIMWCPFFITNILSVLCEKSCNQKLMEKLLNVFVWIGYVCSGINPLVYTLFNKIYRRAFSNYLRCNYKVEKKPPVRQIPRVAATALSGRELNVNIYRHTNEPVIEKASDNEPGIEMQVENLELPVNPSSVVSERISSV
parameter: Ki (nM)

{"structure smiles": "CCc1ncccc1Oc1ccc(NC(=O)N2CCc3cc(C)c(Cl)cc32)cn1", "parameter": "Ki", "unit text": "nM", "observed": 2}
{"structure smiles": "Cc1cc2c(cc1Cl)N(C(=O)Nc1cnc(Oc3cccnc3C)c(C)c1)CC2", "parameter": "Ki", "unit text": "nM", "observed": 1.58}
{"structure smiles": "Cc1ncccc1Oc1ccc(NC(=O)N2CCc3cc(F)c(Cl)cc32)cn1", "parameter": "Ki", "unit text": "nM", "observed": 6.31}
{"structure smiles": "Cc1cc2c(cc1C(F)(F)F)N(C(=O)Nc1ccc(Oc3cccnc3C)nn1)CC2", "parameter": "Ki", "unit text": "nM", "observed": 3.16}

====

target or system: Serotonin 2 receptors; 5-HT2a & 5-HT2c (Homo sapiens) (UniProt P28223+P28335)
protocol details: Selectivity expressed as ratio of serotonin 5-HT2C receptor over serotonin 5-HT2A receptor
Type: protein assay
# Selectivity annotations

{"structure smiles": "Cc1ncccc1Oc1ccc(NC(=O)N2CCc3cc(Cl)ccc32)cn1", "target or system": "Serotonin 2 receptors; 5-HT2a & 5-HT2c (Homo sapiens) (UniProt P28223+P28335)", "censoring operator": ">", "Selectivity": 1600}
{"structure smiles": "Cc1ncccc1Oc1ccc(NC(=O)N2CCc3ccccc32)cn1", "target or system": "Serotonin 2 receptors; 5-HT2a & 5-HT2c (Homo sapiens) (UniProt P28223+P28335)", "censoring operator": ">", "Selectivity": 100}
{"structure smiles": "Cc1ncccc1Oc1ccc(NC(=O)N2CCc3c2cc(Cl)c(C)c3Cl)cn1", "target or system": "Serotonin 2 receptors; 5-HT2a & 5-HT2c (Homo sapiens) (UniProt P28223+P28335)", "censoring operator": "=", "Selectivity": 60}
{"structure smiles": "Cc1cc2c(cc1Cl)N(C(=O)Nc1ccc(Oc3cccnc3Cl)nc1)CC2", "target or system": "Serotonin 2 receptors; 5-HT2a & 5-HT2c (Homo sapiens) (UniProt P28223+P28335)", "censoring operator": "=", "Selectivity": 80}
{"structure smiles": "Cc1ncccc1Oc1ccc(NC(=O)N2CCc3c(Br)cccc32)cn1", "target or system": "Serotonin 2 receptors; 5-HT2a & 5-HT2c (Homo sapiens) (UniProt P28223+P28335)", "censoring operator": ">", "Selectivity": 400}
{"structure smiles": "Cc1cc2c(cc1Cl)N(C(=O)Nc1ccc(Oc3cnccc3C)nc1)CC2", "target or system": "Serotonin 2 receptors; 5-HT2a & 5-HT2c (Homo sapiens) (UniProt P28223+P28335)", "censoring operator": "=", "Selectivity": 8}
{"structure smiles": "COc1cc2c(cc1C(F)(F)F)N(C(=O)Nc1ccc(Oc3cccnc3C)nc1)CC2", "target or system": "Serotonin 2 receptors; 5-HT2a & 5-HT2c (Homo sapiens) (UniProt P28223+P28335)", "censoring operator": "=", "Selectivity": 1300}
{"structure smiles": "Cc1cc2c(cc1C(F)(F)F)N(C(=O)Nc1cnc(Oc3cccnc3C)c(Cl)c1)CC2", "target or system": "Serotonin 2 receptors; 5-HT2a & 5-HT2c (Homo sapiens) (UniProt P28223+P28335)", "censoring operator": "=", "Selectivity": 160}
{"structure smiles": "Cc1cc2c(cc1Cl)N(C(=O)Nc1cnc(Oc3cccnc3C)nc1)CC2", "target or system": "Serotonin 2 receptors; 5-HT2a & 5-HT2c (Homo sapiens) (UniProt P28223+P28335)", "censoring operator": ">", "Selectivity": 200}
{"structure smiles": "CSc1cc2c(cc1C(F)(F)F)N(C(=O)Nc1ccc(Oc3cccnc3C)nc1)CC2", "target or system": "Serotonin 2 receptors; 5-HT2a & 5-HT2c (Homo sapiens) (UniProt P28223+P28335)", "censoring operator": "=", "Selectivity": 630}
{"structure smiles": "Cc1cc2c(cc1C(F)(F)F)N(C(=O)Nc1ccc(Oc3cncnc3C)nc1)CC2", "target or system": "Serotonin 2 receptors; 5-HT2a & 5-HT2c (Homo sapiens) (UniProt P28223+P28335)", "censoring operator": "=", "Selectivity": 40}
{"structure smiles": "Cc1ncccc1Oc1ccc(NC(=O)N2CCc3cc(Br)ccc32)cn1", "target or system": "Serotonin 2 receptors; 5-HT2a & 5-HT2c (Homo sapiens) (UniProt P28223+P28335)", "censoring operator": ">", "Selectivity": 1300}
{"structure smiles": "Cc1ncccc1Oc1ccc(NC(=O)N2CCc3c2cc(C(F)(F)F)c2c3CCO2)cn1", "target or system": "Serotonin 2 receptors; 5-HT2a & 5-HT2c (Homo sapiens) (UniProt P28223+P28335)", "censoring operator": "=", "Selectivity": 400}
{"structure smiles": "Cc1ncccc1Oc1ccc(NC(=O)N2CCc3cc(Br)c(C(F)(F)F)cc32)cn1", "target or system": "Serotonin 2 receptors; 5-HT2a & 5-HT2c (Homo sapiens) (UniProt P28223+P28335)", "censoring operator": "=", "Selectivity": 100}
{"structure smiles": "Cc1cc2c(cc1Cl)N(C(=O)Nc1ccc(Oc3cccnc3C(C)C)nc1)CC2", "target or system": "Serotonin 2 receptors; 5-HT2a & 5-HT2c (Homo sapiens) (UniProt P28223+P28335)", "censoring operator": "=", "Selectivity": 6}
{"structure smiles": "Cc1ncccc1Oc1ccc(NC(=O)N2CCc3cc(Cl)c(Cl)cc32)cn1", "target or system": "Serotonin 2 receptors; 5-HT2a & 5-HT2c (Homo sapiens) (UniProt P28223+P28335)", "censoring operator": "=", "Selectivity": 130}
{"structure smiles": "COc1cc2c(cc1C(F)(F)F)N(C(=O)Nc1cnc(Oc3cccnc3C)cc1C)CC2", "target or system": "Serotonin 2 receptors; 5-HT2a & 5-HT2c (Homo sapiens) (UniProt P28223+P28335)", "censoring operator": "=", "Selectivity": 3}
{"structure smiles": "Cc1cc2c(cc1Br)N(C(=O)Nc1ccc(Oc3cccnc3C)nc1)CC2", "target or system": "Serotonin 2 receptors; 5-HT2a & 5-HT2c (Homo sapiens) (UniProt P28223+P28335)", "censoring operator": "=", "Selectivity": 200}
{"structure smiles": "Cc1cc2c(cc1Cl)N(C(=O)Nc1cnc(Oc3cccnc3C)c(Cl)c1)CC2", "target or system": "Serotonin 2 receptors; 5-HT2a & 5-HT2c (Homo sapiens) (UniProt P28223+P28335)", "censoring operator": "=", "Selectivity": 200}
{"structure smiles": "Cc1cc2c(cc1Cl)N(C(=O)Nc1ccc(Oc3cccnc3C)nc1)CC2", "target or system": "Serotonin 2 receptors; 5-HT2a & 5-HT2c (Homo sapiens) (UniProt P28223+P28335)", "censoring operator": "=", "Selectivity": 160}
{"structure smiles": "Cc1ncccc1Oc1ccc(NC(=O)N2CCc3cc(C(F)(F)F)ccc32)cn1", "target or system": "Serotonin 2 receptors; 5-HT2a & 5-HT2c (Homo sapiens) (UniProt P28223+P28335)", "censoring operator": "=", "Selectivity": 630}
